Biological target: hα7-wt nAChR-expressing GH4Cl cells (Homo sapiens)
Construct: expressed in transfected cells
Sequence (P36544 23-502): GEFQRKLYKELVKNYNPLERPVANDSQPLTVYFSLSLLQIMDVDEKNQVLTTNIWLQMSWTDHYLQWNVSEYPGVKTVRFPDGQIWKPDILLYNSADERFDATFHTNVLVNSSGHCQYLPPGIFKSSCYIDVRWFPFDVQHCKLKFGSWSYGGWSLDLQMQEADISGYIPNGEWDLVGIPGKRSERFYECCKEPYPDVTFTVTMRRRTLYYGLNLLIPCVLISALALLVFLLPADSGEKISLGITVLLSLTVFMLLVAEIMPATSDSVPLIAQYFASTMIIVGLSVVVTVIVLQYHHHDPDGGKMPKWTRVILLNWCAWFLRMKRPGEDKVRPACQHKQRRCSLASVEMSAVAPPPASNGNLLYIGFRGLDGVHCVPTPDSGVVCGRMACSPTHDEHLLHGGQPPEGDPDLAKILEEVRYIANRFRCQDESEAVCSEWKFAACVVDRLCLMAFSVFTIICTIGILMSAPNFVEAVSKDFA
Test: Patch-clamp current recording (whole-cell), potentiation of choline 1 mM response, PAM type
Assay type: cell-based
Set-up: key: Type 0 compounds minimally enhance the effect size of the current elicited by 1 mM choline.; Type 1 compounds enhance the effect size of the current elicited by 1 mM choline but minimally alter the kinetics of the receptor.; Type 2 compounds enhance the effect size of the current elicited by 1 mM choline while reducing the rate and/or the extent of desensitization.; Type 3 compounds enhance the effect size of the current elicited by 1 mM choline. When tested at higher concentrations up to 10 μM they completely inhibit desensitization, in particular a 1 mM choline application of 250 milliseconds.; Type 4 compounds allow for an initial desensitization of the receptor followed by a re-opening of the receptor during agonist application
Conditions: patch-clamp current recording, 1 mM choline
# reported Pam type; entries follow
API doc: respond with a numeric literal and nothing else, no unit.

Reported Pam type for CCNC(=O)C(C)c1nc(Nc2ccc3c(c2)OC(F)(F)O3)nn1-c1cc(C)nc(C)c1 (stereo not drawn) was 2

Notebook: `Cc1cc(-n2nc(Nc3cccc(OC(F)(F)F)c3)nc2CC(=O)NC2CCC2)cc(C)n1` , Pam type read as 2

// sample `COc1ccc(-n2nc(Nc3cccc(OC(F)(F)F)c3)nc2CCC(=O)N(C)C)cc1` , its Pam type was 1

Entry `CC[C@H](O)Cc1nc(Nc2ccc(F)c(F)c2F)nn1-c1cc(C)nc(C)c1` ; Pam type = 2

Field Pam type (entry `Cc1cc(-n2nc(Nc3ccc(F)c(F)c3)nc2C[C@H](C)O)cc(C)n1` ) reads 2

Please fill in: Pam type reported for `CCNC(=O)Cc1nc(Nc2ccc3c(c2)OC(F)(F)O3)nn1-c1cc(C)ncc1C` = 4

Form field Pam type, entry `CC[C@H](O)Cc1nc(Nc2ccc(F)c(F)c2)nn1-c1ccc(F)cc1` : 1

For `Cc1cc(-n2nc(Nc3cccc(OC(F)(F)F)c3)nc2CC(=O)NC2CC2)cc(C)n1` the molecule record lists Pam type as 2
